Listed compounds paired with reported Activity
experiment: Cytotoxicity against human MS-G2 cells at 20 ug/ml by AST method; assay type: cell-based
Enter your answer as a number in IU/L; do not include the unit.

# molSmiles, unitString, observedMeasurement
rows = [
    ("COC1=C(OC)C(=O)[C@]23COc4c5c(cc(c42)[C@H](OC(=O)/C=C/c2ccccc2)[C@H](C)[C@H](C)CC3=C1)OCO5", "IU/L", 22),
    ("CC=C(C)C(=O)O[C@@H]1c2cc3c(c(O)c2-c2c(cc(OC)c(OC)c2OC)C[C@@H](C)[C@H]1C)OCO3", "IU/L", 47.8),
]

Form field Activity, entry `CCCCCC(=O)O[C@@H]1c2cc3c(c(O)c2-c2c(cc(OC)c(OC)c2OC)C[C@@H](C)[C@H]1C)OCO3` : 35.9
